- MEASUREMENT_TARGET: T1, AFP158/HLA-A*02:01 complex (human)
- T1 construct: flowed over the chip in SPR; also called AFP158 pro
- ASSAY_NAME: SPR, scFv captured, pMHC in flow;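 note: complex injected at several concentrations over crude scFv, association then running-buffer dissociation, KD estimated from kinetic on- and off-rate constants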
Kd overview

BINDER | Kd [nM]
HL107M (scFv, AS170036 VL1VH1 scFv mutein) scFv: QSALTQPRSVSGSPGQSVTISCAGTSSDVGSENYVSWYQQHPGKAPKLMIYQVNKRASGVPDRFSGSKSGNTASLTISGLQAEDEADYYCASYRSSDHNIVFGGGTKLTVLGGGGSGGGGSGGGGSEVQLVESGGGLVQPGGSLRLSCAASGFTFSSYAMSWVRQAPGKGLEWVSTINSGTGSPYYADSVKGRFTISRDNSKNTLYLQMNSLRAEDTAVYYCAKNFFDGSWFMGPPAMDYWGQGTLVTVSSHHHHHH | 370
HS57F (scFv, AS170036 VL1VH1 scFv mutein) scFv: QSALTQPRSVSGSPGQSVTISCAGTSSDVGSENYVSWYQQHPGKAPKLMIYQVNKRASGVPDRFSGSKSGNTASLTISGLQAEDEADYYCASYRSSDHNIVFGGGTKLTVLGGGGSGGGGSGGGGSEVQLVESGGGLVQPGGSLRLSCAASGFTFSSYAMSWVRQAPGKGLEWVSTINSGTGFPYYADSVKGRFTISRDNSKNTLYLQMNSLRAEDTAVYYCAKNFFDGSWFLGPPAMDYWGQGTLVTVSSHHHHHH | 180
